assay: AUC (0 to 6 hrs) in rat at 10 mg/kg, po; format: ADME, organism-based; set-up: time < 6 hr, dose 10 mg/kg, route oral; settings: plasma
Assign class by AUC(0-t) at 6 h: not lower than 2 µM·h means TRUE; lower than 2 µM·h means FALSE.

Example entries begin here.
                            smiles_notation  answer_label
0  Cc1nc(NCc2cccs2)nc(N[C@@H]2C[C@H](CO)[C@@H](O)[C@H]2O)c1-c1nc2ccccc2s1         FALSE
1  Cc1nc(NCCCC(F)(F)F)nc(N[C@@H]2C[C@H](CO)[C@@H](O)[C@H]2O)c1-c1nc2ccccc2s1          TRUE

INPUT: Exam item: decide whether the reported AUC(0-t) at 6 h for "Cc1nc(NCc2ccsc2)nc(N[C@@H]2C[C@H](CO)[C@@H](O)[C@H]2O)c1-c1nc2ccccc2s1" is at least 2 µM·h.
OUTPUT: FALSE

INPUT: Exam item: decide whether the reported AUC(0-t) at 6 h for "Cc1nc(NCc2ccccc2)nc(N[C@@H]2C[C@H](CO)[C@@H](O)[C@H]2O)c1-c1nc2ccccc2s1" is at least 2 µM·h.
OUTPUT: TRUE

INPUT: Exam item: decide whether the reported AUC(0-t) at 6 h for "COCCNc1nc(C)c(-c2nc3ccccc3s2)c(N[C@@H]2C[C@H](CO)[C@@H](O)[C@H]2O)n1" is at least 2 µM·h.
OUTPUT: TRUE

INPUT: Exam item: decide whether the reported AUC(0-t) at 6 h for "Cc1nc(NCC(C)C)nc(N[C@@H]2C[C@H](CO)[C@@H](O)[C@H]2O)c1-c1nc2ccccc2s1" is at least 2 µM·h.
OUTPUT: TRUE

INPUT: Exam item: decide whether the reported AUC(0-t) at 6 h for "Cc1nc(NCC2CC2)nc(N[C@@H]2C[C@H](CO)[C@@H](O)[C@H]2O)c1-c1nc2ccccc2s1" is at least 2 µM·h.
OUTPUT: TRUE

INPUT: Exam item: decide whether the reported AUC(0-t) at 6 h for "Cc1nc(NCc2nccs2)nc(N[C@@H]2C[C@H](CO)[C@@H](O)[C@H]2O)c1-c1nc2ccccc2s1" is at least 2 µM·h.
OUTPUT: FALSE

###

assay: AUC (0 to 24 hrs) in monkey at 1 mg/kg, iv and 3 mg/kg, po; format: ADME, organism-based, Macaca mulatta; details: rhesus monkey, plasma
Measurement Kind: AUC(0-t)
The reply should read as a number followed by its unit.

INPUT: Item under review: "Cc1nc(NCC(F)(F)F)nc(N[C@@H]2C[C@H](CO)[C@@H](O)[C@H]2O)c1-c1nc2ccccc2s1.Cl" . Reported AUC(0-t)?
OUTPUT: 0.3 µM·h

###

assay: Oral bioavailability in dog at 3 mg/kg; format: ADME, organism-based, Canis lupus familiaris; conditions: in vivo
Measurement Kind: bioavailability (%)
Entry rule: numbers only, all in %.

INPUT: Item under review: "Cc1nc(NCC(F)(F)F)nc(N[C@@H]2C[C@H](CO)[C@@H](O)[C@H]2O)c1-c1nc2ccccc2s1.Cl" . Reported bioavailability?
OUTPUT: 35

###

test: AUC (0 to 24 hrs) in rat at 10 mg/kg, po; format: ADME, organism-based; design: time < 24 hr, dose 10 mg/kg, route oral; conditions: plasma
Measurement Kind: AUC(0-t) at 24 h (µM·h)
Entry rule: numbers only, all in µM·h.

                            smiles_notation  readout_units  result
0  Cc1nc(NCC(F)(F)F)nc(N[C@@H]2C[C@H](CO)[C@@H](O)[C@H]2O)c1-c1nc2ccccc2s1           µM·h       7

INPUT: Item under review: "Cc1nc(N(C)C)nc(N[C@@H]2C[C@H](CO)[C@@H](O)[C@H]2O)c1-c1nc2ccccc2s1" . Reported AUC(0-t) at 24 h?
OUTPUT: 11
